Catalogue of IC50 readings, one per entry.
- TEST_SYSTEM: NDM-1 (Klebsiella pneumoniae, UniProt C7C422)
- Sequence (C7C422 whole entry, looked up, species assumed): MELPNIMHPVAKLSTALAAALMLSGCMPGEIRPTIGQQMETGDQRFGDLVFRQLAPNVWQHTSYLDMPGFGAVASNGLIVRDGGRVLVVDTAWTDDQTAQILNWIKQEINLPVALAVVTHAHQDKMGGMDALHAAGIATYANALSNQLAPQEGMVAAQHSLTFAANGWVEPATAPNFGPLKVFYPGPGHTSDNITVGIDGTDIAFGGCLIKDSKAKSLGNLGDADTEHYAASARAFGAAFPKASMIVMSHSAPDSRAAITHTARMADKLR
- ASSAY: biochemical
- Assay type: biochemical
- REPORTED_CONDITIONS: fluorescence assay with CCF2-FA substrate; read-out: NDM-1 IC50
Write it as a number; the unit nM goes unstated.

The cases that follow already have their IC50 on record.
| MOLECULE | RESULT_TYPE | DISPLAY_UNIT | TEST_RESULT |
| --- | --- | --- | --- |
| NS(=O)(=O)c1c(C(F)(F)F)ccc(N2CCN(CCCO)CC2)c1-c1nnn[nH]1 [Example 763] | IC50 | nM | 37.7 |
| NS(=O)(=O)c1nccc(-c2ccc3c(c2)CNC3=O)c1-c1nnn[nH]1 [Example 196] | IC50 | nM | 45.6 |
| CN(C)c1ccc(-c2ccnc(S(N)(=O)=O)c2-c2nn[nH]n2)cn1 [Example 211] | IC50 | nM | 45.6 |

Turning now to a further record.
Request: # query: IC50 | item NS(=O)(=O)c1cccc(-c2ccc3ccncc3c2)c1-c1nn[nH]n1 [Example 71] | system: NDM-1 (Klebsiella pneumoniae, UniProt C7C422)
Response: 1.22

====

- TEST_SYSTEM: VIM-1 (Pseudomonas aeruginosa (strain ATCC 15692 / DSM 22644 / CIP 104116 / JCM 14847 / LMG 12228 / 1C / PRS 101 / PAO1))
- ASSAY: Enzyme activity: determination of IC50, fluorescence assay with CCF2-FA substrate (VIM-1)
- Type: biochemical
- REPORTED_CONDITIONS: VIM-1 enzyme, CCF2-FA fluorescence assay; read-out: VIM-1 IC50
pIC50: −log10 of the molar value.
Entry flag: met if pIC50 reaches 7; not met if it does not.

Request: Form field: pIC50 at least 7? Entry: NS(=O)(=O)c1ccc(O)cc1-c1nn[nH]n1
Response: not met

====

- TEST_SYSTEM: VIM-1 (Pseudomonas aeruginosa (strain ATCC 15692 / DSM 22644 / CIP 104116 / JCM 14847 / LMG 12228 / 1C / PRS 101 / PAO1))
- ASSAY: Enzyme activity: determination of IC50, fluorescence assay with CCF2-FA substrate (VIM-1)
- Format: biochemical
- REPORTED_CONDITIONS: VIM-1 IC50, fluorescence assay with CCF2-FA substrate
RESULT_TYPE: IC50 (nM)
Write it as a number; the unit nM goes unstated.

Request: # query: IC50 of entry NS(=O)(=O)c1cccc(-c2ccnn2Cc2ccccc2)c1-c1nn[nH]n1
Response: 375

Request: # query: IC50 of entry NS(=O)(=O)c1cccc(-c2ccc(O)nc2)c1-c1nn[nH]n1
Response: 542

Request: # query: IC50 of entry NS(=O)(=O)c1nccc(N2CCC(c3ncc[nH]3)CC2)c1-c1nnn[nH]1
Response: 938

====

- TEST_SYSTEM: IMP-1 (Serratia marcescens)
- Sequence (P52699 whole entry, looked up): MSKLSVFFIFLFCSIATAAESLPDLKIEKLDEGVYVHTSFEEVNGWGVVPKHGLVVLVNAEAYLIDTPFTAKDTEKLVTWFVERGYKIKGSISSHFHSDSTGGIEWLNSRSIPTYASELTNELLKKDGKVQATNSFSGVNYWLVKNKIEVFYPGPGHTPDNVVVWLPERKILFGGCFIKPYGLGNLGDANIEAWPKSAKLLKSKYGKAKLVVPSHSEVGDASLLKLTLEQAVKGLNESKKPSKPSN
- ASSAY: biochemical
- Assay type: biochemical
- REPORTED_CONDITIONS: IMP-1 enzyme, CCF2-FA fluorescence assay; read-out: IMP-1 IC50
RESULT_TYPE: log10(IC50) (log10 of the value in nM)
Plainly stated, the numbers are log10 of IC50 given in nM.

| MOLECULE | TEST_SYSTEM | TEST_RESULT |
| --- | --- | --- |
| NS(=O)(=O)c1c(C(F)(F)F)ccc(-c2ccc3nccn3c2)c1-c1nnn[nH]1 [Example 481] | IMP-1 (Serratia marcescens) | 0.85 |
| NS(=O)(=O)c1cccc(-c2ccc(CN3CCC(CO)C3)cc2)c1-c1nnn[nH]1 (stereo in doubt) | IMP-1 (Serratia marcescens) | 2.54 |
| CN(C)CCCCNCc1ccc(-c2cccc(S(N)(=O)=O)c2-c2nnn[nH]2)cc1 | IMP-1 (Serratia marcescens) | 3.19 |
| N=C(N)N1CC(c2ccc(-c3ccc(C(F)(F)F)c(S(N)(=O)=O)c3-c3nn[nH]n3)cc2)C1 | IMP-1 (Serratia marcescens) | 0.27 |
| CCC(CO)NCc1ccc(-c2cccc(S(N)(=O)=O)c2-c2nnn[nH]2)cc1 (stereo in doubt) | IMP-1 (Serratia marcescens) | 2.33 |

Request: # query: log10(IC50) of entry N=C(N)N1Cc2ccc(-c3ccc(C(F)(F)F)c(S(N)(=O)=O)c3-c3nn[nH]n3)cc2C1
Response: 1.29

Request: # query: log10(IC50) of entry CCN1CCC(NCc2ccc(-c3cccc(S(N)(=O)=O)c3-c3nnn[nH]3)cc2)CC1
Response: 2.74

====

- TEST_SYSTEM: IMP-1 (Serratia marcescens)
- ASSAY: biochemical
- Assay type: biochemical
- REPORTED_CONDITIONS: IMP-1 enzyme, CCF2-FA substrate; read-out: IMP-1 IC50
RESULT_TYPE: IC50 (nM)
Write it as a number; the unit nM goes unstated.

| COMPOUND | IC50 (nM) |
| --- | --- |
| NS(=O)(=O)c1c(CC2CCNCC2)ccc(-c2ccc(C3CCNC3)cc2)c1-c1nn[nH]n1 (stereo not shown) | 28.8 |

Request: # query: IC50 of entry Nc1ccc(-c2ccc(CC[C@H]3CC[C@@H](N)CC3)c(S(N)(=O)=O)c2-c2nnn[nH]2)cn1
Response: 47.1

Request: # query: IC50 of entry CC(CO)(CO)c1ccc(-c2ccc(C(F)(F)F)c(S(N)(=O)=O)c2-c2nnn[nH]2)cc1
Response: 0.92

Request: # query: IC50 of entry CC1(O)CCN(c2ccc(C(F)(F)F)c(S(N)(=O)=O)c2-c2nnn[nH]2)CC1
Response: 4.82

====

- TEST_SYSTEM: IMP-1 (Serratia marcescens)
- ASSAY: biochemical
- Type: biochemical
- REPORTED_CONDITIONS: IMP-1 enzyme, CCF2-FA substrate; read-out: IMP-1 IC50
Catalogue of pIC50 readings, one per entry.
Conceptually, pIC50 converts a concentration in mol/L into minus its log10.

The cases that follow already have their pIC50 on record.
| COMPOUND | RESULT_TYPE | TEST_RESULT |
| --- | --- | --- |
| NCCNc1nc2c(-c3cccc(S(N)(=O)=O)c3-c3nn[nH]n3)cccc2s1 [Example 639] | pIC50 | 6.73 |
| NS(=O)(=O)c1cccc(-c2ccc(N3CCC(CO)C3)nc2)c1-c1nnn[nH]1 (stereo not shown) [Example 622] | pIC50 | 7.07 |
| CC1(O)CCCN(c2ccc(C(F)(F)F)c(S(N)(=O)=O)c2-c2nnn[nH]2)C1 (stereo not shown) [Example 654] | pIC50 | 7.71 |

Turning now to a further record.
Request: # query: pIC50 of entry NS(=O)(=O)c1c(C(F)(F)F)ccc([C@H]2CC[C@H](O)CC2)c1-c1nnn[nH]1 [Example 496]
Response: 8.96

====

Catalogue of pIC50 readings, one per entry.
- TEST_SYSTEM: UniProtKB P52699
- ASSAY: biochemical
- Format: biochemical
- REPORTED_CONDITIONS: fluorescence assay with CCF2-FA substrate; read-out: IMP-1 IC50
Conceptually, pIC50 converts a concentration in mol/L into minus its log10.

The cases that follow already have their pIC50 on record.
| SMILES_INPUT | pIC50 |
| --- | --- |
| N=C(N)NC1CCN(c2ccc(C(F)(F)F)c(S(N)(=O)=O)c2-c2nnn[nH]2)CC1 | 7.23 |
| NS(=O)(=O)c1cccc(-c2ccc(F)nc2)c1-c1nn[nH]n1 | 6.19 |
| NS(=O)(=O)c1cccc(-c2ccnc(F)c2)c1-c1nn[nH]n1 | 6.52 |

Request: # query: pIC50 of entry CCOC(=O)CCn1cc(-c2cccc(S(N)(=O)=O)c2-c2nn[nH]n2)cn1
Response: 6.35

Request: # query: pIC50 of entry NS(=O)(=O)c1nccc(N2CCC(N3CCOCC3)CC2)c1-c1nnn[nH]1
Response: 5.43

Request: # query: pIC50 of entry NS(=O)(=O)c1cccc(-c2ccnnc2)c1-c1nn[nH]n1
Response: 5.38

Request: # query: pIC50 of entry CN(C)CCC1CCN(c2ccnc(S(N)(=O)=O)c2-c2nnn[nH]2)CC1
Response: 4.98

Request: # query: pIC50 of entry CNC(=O)c1ccc(-c2cccc(S(N)(=O)=O)c2-c2nn[nH]n2)cc1
Response: 6.76

Request: # query: pIC50 of entry NS(=O)(=O)c1cccc(CC2CCCCC2)c1-c1nnn[nH]1
Response: 7.15

====

- TEST_SYSTEM: VIM-1 (Pseudomonas aeruginosa (strain ATCC 15692 / DSM 22644 / CIP 104116 / JCM 14847 / LMG 12228 / 1C / PRS 101 / PAO1))
- ASSAY: Enzyme activity: determination of IC50, fluorescence assay with CCF2-FA substrate (VIM-1)
- Assay type: biochemical
- REPORTED_CONDITIONS: fluorescence assay with CCF2-FA substrate; read-out: VIM-1 IC50
Mark Condition met only when IC50 stays strictly below 50 nM. Values equal to the cut-off are Condition not met.

| SMILES_INPUT | CLASS_LABEL |
| --- | --- |
| CCn1c(N)nc2cc(-c3ccc(C(F)(F)F)c(S(N)(=O)=O)c3-c3nnn[nH]3)ccc21 | Condition met |

Request: # strict comparison: is reported IC50 < 50 nM? input = Nc1nc2c(F)cc(-c3ccc(C(F)(F)F)c(S(N)(=O)=O)c3-c3nnn[nH]3)cc2s1
Response: Condition met
